- assay.explanation: Pharmacokinetics from plasma levels after i.p. administration to rats
- Assay type: in vivo, rat
- test.parameters: rat, ip, plasma, i.p. 80 mg/kg, mean, read-out: Cmax
parameter: Cmax

compound: CCC(C)CCOC(=O)Nc1ccc(S(N)(=O)=O)cc1 (racemic) [MSPC (racemate)]
recorded.value: 10000 ng/mL

---

- assay.explanation: Pharmacokinetics from plasma levels after i.p. administration to rats
- Type: in vivo, rat
- test.parameters: rat, ip, plasma, i.p. 80 mg/kg, mean, read-out: tmax
- Description: The pharmacokinetics (PK) of racemic-MSPC and its two individual enantiomers were studied following i.p. (80 mg/kg) to rats and their major PK parameters were estimated. The study details were as described previously[8] and plasma and brain levels of racemic-MSPC and it individual enantiomers were monitored at: 20, 40, 60, 90, 120, 160, 180, 200, 220, 260, 320, and 360 min after dosing. Plasma and brain concentrations of each compound were quantified by an HPLC assay. […]

molecule: CCC(C)CCOC(=O)Nc1ccc(S(N)(=O)=O)cc1 (racemic) [MSPC (racemate)]
Tmax [h]: 1.3
